System: A549 cells
PROTOCOL_CONDITIONS: 10 µM
Respond with satisfied for Cell Viability values of 80% and above, not satisfied for values below.

Decide: is the reported value of Cell Viability for COc1nc2ccccc2cc1C(Nc1ccccc1NCCN(C)C)c1ccccc1 (stereo not drawn) [SYL1621] equal to or greater than 80%? not satisfied

Decide: is the reported value of Cell Viability for CNCCNCc1ccc(-c2cc3cc(Br)ccc3nc2OCc2cccc3ccccc23)cc1 [SYL1679] equal to or greater than 80%? satisfied

Decide: is the reported value of Cell Viability for COc1ccc2nc(OCc3cccc4ccccc34)c(-c3ccc(CN(C)C)cc3)cc2c1 [SYL1702] equal to or greater than 80%? satisfied

Decide: is the reported value of Cell Viability for CN(C)Cc1ccc(-c2cc3cc(Br)ccc3nc2OCc2cccc(F)c2)cc1 [SYL1715] equal to or greater than 80%? satisfied

Data provenance: paper PMC6315506
